STUDY_SYSTEM: Macrophage migration inhibitory factor (Homo sapiens, UniProt P14174)
Sequence (P14174 whole entry): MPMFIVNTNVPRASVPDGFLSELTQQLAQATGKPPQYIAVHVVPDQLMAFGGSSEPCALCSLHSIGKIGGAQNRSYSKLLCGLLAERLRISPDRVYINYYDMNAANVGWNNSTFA
METHOD_DESCRIPTION: Inhibition of recombinant biotinylated human MIF tautomerase activity expressed in Escherichia coli BL21 DE3 assessed as reduction in tautomerization of keto-p-hydroxyphenylpyruvate using keto-p-hydroxyphenylpyrivate as substrate preincubated for 30 mins followed by substrate addition by HTS assay
pIC50: −log10 of the molar value.
OBSERVABLE: pIC50

> print(dat)
                            compound.string                              study.system  observable  measured.result
1  CC(C)C(=O)c1c(Cc2cccc(/N=N/c3ccc4c(S(=O)(=O)O)cc(S(=O)(=O)O)c(N)c4c3O)c2)nn2ccccc12  Macrophage migration inhibitory factor (Homo sapiens, UniProt P14174)       pIC50             5.12
